These measurements were taken from patent US20100093811A1.

biological target: wild-type HIV-1 protease (Human immunodeficiency virus type 1 group M subtype B, UniProt P04585); assay: Assay for inhibition of microbial expressed HIV protease; assay type: biochemical; settings: wild-type HIV-1 protease expressed in E. coli, peptide substrate, pH 5.5; read-out: Enzyme Inhibition - IC50
MEASURED_PARAMETER: IC50

• CCCN([C@H](CO)CCC[C@H](C)NC(=O)[C@@H](NC(=O)OC)C(c1cccc(F)c1)c1cccc(F)c1)S(=O)(=O)c1ccc(N)cc1 = 10 pM
• COC(=O)N[C@H](C(=O)N[C@H](CCC[C@@H](CO)N(CC(C)C)S(=O)(=O)c1ccc(N)cc1)C(C)C)C(c1ccccc1)c1ccccc1 = 519 pM
• CCC(CCC[C@@H](CO)N(CCC(C)C)S(=O)(=O)c1ccc(N)cc1)NC(=O)[C@H](C(c1ccccc1)c1ccccc1)N(C)C(=O)OC (mixture of isomers) = 2110 pM

###

target: wild-type HIV-1 protease (Human immunodeficiency virus type 1 group M subtype B, UniProt P04585); experiment: Assay for inhibition of microbial expressed HIV protease; format: biochemical; conditions: wild-type HIV-1 protease expressed in E. coli, peptide substrate, pH 5.5; read-out: Enzyme Inhibition - IC50
pIC50: −log10 of the molar value.
Classify by measured pIC50: True if it is equal to or exceeds 10, False if it is smaller.

• COC(=O)N[C@H](C(=O)NC(CO)CCCC(CO)N(CCC(C)C)S(=O)(=O)c1ccc(N)cc1)C(c1ccccc1)c1ccccc1 (single isomer, unassigned) [Example M1-7B] = True
• COC(=O)N[C@H](C(=O)N[C@@H](C)CCC[C@@H](CO)N(CC1CC1)S(=O)(=O)c1ccc(N)cc1)C(c1ccccc1)c1ccccc1 [Example G7] = True
• COC(=O)N[C@H](C(=O)NC(C)(C)CCC[C@@H](CO)N(CCC(C)C)S(=O)(=O)c1ccc(N)cc1)C(c1ccccc1)c1ccccc1 [Example L4] = True
• CCN([C@H](CO)CCC[C@@H](NC(=O)[C@@H](NC(=O)OC)C(c1ccccc1)c1ccccc1)C1CC1)S(=O)(=O)c1ccc(N)cc1 [Example I10] = False
• COC(=O)N[C@H](C(=O)N[C@H](CCC[C@@H](CO)N(CCC(C)C)S(=O)(=O)c1ccc(CO)cc1)C(F)(F)F)C(c1ccccc1)c1ccccc1 [Example J2] = True
• COC(=O)N[C@H](C(=O)N[C@H](CCC[C@@H](CO)N(C(C)C)S(=O)(=O)c1ccc(N)cc1)C1CC1)C(c1ccccc1)c1ccccc1 [Example I8] = False

###

tested on: acute HIV infection of T-lymphoid cells; experiment: Assay for inhibition of HIV replication (spread assay); type: cell-based, HIV-1; conditions: Human immunodeficiency virus 1, T-lymphoid; read-out: Spread - IC95
Structures can show the parent of a compound that is named as a salt.
Returns YES if the recorded IC95 is greater than or equal to 0.03 µM, and NO otherwise.

* COC(=O)N[C@H](C(=O)N[C@H](CCC[C@@H](CO)N(CC(C)C)S(=O)(=O)c1ccc2ncsc2c1)C1CC1)C(c1ccccc1)c1ccccc1 | NO
* COC(=O)N[C@H](C(=O)N[C@H](CCC[C@@H](CO)N(CCC(C)C)S(=O)(=O)c1ccc(CO)cc1)C1CC1)C(c1ccccc1)c1ccccc1 | NO
* COC(=O)N[C@@H](Cc1ccccc1Cl)C(=O)N[C@@H](C)CCC[C@@H](CO)N(C(C)C)S(=O)(=O)c1ccc(CO)cc1 | YES
* COC(=O)N[C@H](C(=O)N[C@H](CCC[C@@H](CO)N(CC(C)C)S(=O)(=O)c1ccc(N)cc1)C(F)(F)F)C(c1ccccc1)c1ccccc1 | NO
* CC[C@@H](CCC[C@@H](CO)N(CCC(C)C)S(=O)(=O)c1ccc(N)cc1)NC(=O)[C@H](Cc1ccccc1Br)NC(=O)OC | NO
* CCCN([C@H](CO)CCC[C@@H](NC(=O)[C@H](Cc1ccccc1Cl)NC(=O)OC)C(F)(F)F)S(=O)(=O)c1ccc(CO)cc1 | YES
* CC[C@@H](CCC[C@@H](CO)N(CCC(C)C)S(=O)(=O)c1ccc(CO)cc1)NC(=O)[C@@H](N)C(c1ccccc1)c1ccccc1 [Example J31, hydrochloride] | NO
* CCCN([C@H](CO)CCC[C@H](CC)NC(=O)[C@@H](NC)C(c1ccccc1)c1ccccc1)S(=O)(=O)c1ccc(CO)cc1 | YES
* COC(=O)N[C@@H](Cc1ccccc1Cl)C(=O)N[C@@H](C)CCC[C@@H](CO)N(CC(C)C)S(=O)(=O)c1ccc(CO)cc1 | NO
* CCCN([C@H](CO)CCC[C@@H](NC(=O)[C@@H](NC(=O)OC)C(c1ccccc1)c1ccccc1)C1CC1)S(=O)(=O)c1ccc(N)cc1 | YES
* COC(=O)NC(Cc1cccc(Cl)c1Cl)C(=O)N[C@@H](C)CCC[C@@H](CO)N(C(C)C)S(=O)(=O)c1ccc(CO)cc1 (stereo partly shown) | YES
* COC(=O)N[C@H](C(=O)N[C@@H](C)CCC[C@@H](CO)N(C)S(=O)(=O)c1ccc(CO)cc1)C(c1ccccc1)c1ccccc1 | YES
* COC(=O)N[C@H](C(=O)N[C@H](CCC[C@@H](CO)N(CC(C)C)S(=O)(=O)c1ccc(CO)cc1)C1CC1)C(c1ccc(F)cc1)c1ccc(F)cc1 | YES
